measurement-target: human recombinant histamine H2 receptor (Homo sapiens)
Construct: expressed in transfected cells; host or cells: Chinese hamster ovary (CHO) K1 cells
Sequence (P25021 whole entry): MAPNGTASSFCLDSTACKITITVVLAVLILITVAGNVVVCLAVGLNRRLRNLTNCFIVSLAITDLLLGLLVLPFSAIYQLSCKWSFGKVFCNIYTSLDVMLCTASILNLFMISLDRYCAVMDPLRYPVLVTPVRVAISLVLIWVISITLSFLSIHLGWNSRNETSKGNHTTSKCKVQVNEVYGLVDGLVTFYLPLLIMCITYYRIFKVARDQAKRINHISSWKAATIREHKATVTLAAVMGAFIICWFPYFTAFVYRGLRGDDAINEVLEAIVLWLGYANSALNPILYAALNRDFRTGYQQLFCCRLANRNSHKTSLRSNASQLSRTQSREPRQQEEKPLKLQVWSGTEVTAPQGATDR
assay-text: Histamine H2 radioligand binding ([125I]Aminopotentidine)
experimental-parameters: read-out: Histamine Binding (1 μM) H2, percent inhibition of specific binding, 1 μM
Values of inhibition at 1 µM greater than or equal to 90% map to satisfied; values below map to not satisfied.

Examples with answers:
>>> assigned_category("C=C(Cn1c2c(c3cc(OC)ccc31)CN(C)CC2)c1ccncc1")
"not satisfied"
>>> assigned_category("C/C(=C/n1c2c(c3cc(Cl)ccc31)CN(C)CC2)c1ccccc1F")
"not satisfied"
>>> assigned_category("C/C(=C\\n1c2c(c3cc(Cl)ccc31)CN(C)CC2)c1cccnc1")
"not satisfied"
>>> assigned_category("CCOC(=O)/C=C(/Cn1c2c(c3cc(C)ccc31)CN(C)CC2)c1ccccc1")
"not satisfied"
>>> assigned_category("Cc1ccc2c(c1)c1c(n2CC(O)c2ccc(C)nc2)CCN(C)C1 (stereo not drawn)")
"not satisfied"

Input line: Given the entry CN1CCc2c(c3cccc(F)c3n2CC(C)(O)c2ccncc2)C1 (stereo not drawn) , answer whether its inhibition at 1 µM meets or surpasses 90%.
Output line: not satisfied

Input line: hey, is inhibition at 1 µM for this one >= 90%? `Cc1ccc(C#Cn2c3c(c4cc(Cl)ccc42)CN(C)CC3)cn1`
Output line: not satisfied

Input line: Confirm if inhibition at 1 µM reported for the compound `CCOC(=O)/C=C(/Cn1c2c(c3cc(C)ccc31)CN(C)CC2)c1ccc(F)cc1` is 90% or above.
Output line: satisfied

Input line: Is inhibition at 1 µM for `C=C(Cn1c2c(c3cc(Cl)ccc31)CN(C)CC2)c1ccc(F)cc1` at or above 90%?
Output line: satisfied

Input line: Answer whether inhibition at 1 µM of CCN1CCc2c(c3ccccc3n2CC(O)c2ccc(C)cc2)C1 (racemic) is greater than or equal to 90%.
Output line: not satisfied

Input line: State whether the measured inhibition at 1 µM reaches 90%, counting equality as reaching it, for `CNC(=O)C/C(=C\n1c2c(c3cc(C)ccc31)CN(C)CC2)c1ccc(F)cc1`
Output line: not satisfied

Input line: In plain terms: is recorded inhibition at 1 µM at least 90% for `C/C(=C\n1c2c(c3cc(C)ccc31)CN(C)CC2)c1ccc(O)cc1` ?
Output line: satisfied

* * *

measurement-target: human recombinant serotonin (5-Hydroxytryptamine) 5-HT6 receptor (Homo sapiens, UniProt P50406)
Construct: expressed in transfected cells; host or cells: human HeLa cells
Sequence (P50406 whole entry): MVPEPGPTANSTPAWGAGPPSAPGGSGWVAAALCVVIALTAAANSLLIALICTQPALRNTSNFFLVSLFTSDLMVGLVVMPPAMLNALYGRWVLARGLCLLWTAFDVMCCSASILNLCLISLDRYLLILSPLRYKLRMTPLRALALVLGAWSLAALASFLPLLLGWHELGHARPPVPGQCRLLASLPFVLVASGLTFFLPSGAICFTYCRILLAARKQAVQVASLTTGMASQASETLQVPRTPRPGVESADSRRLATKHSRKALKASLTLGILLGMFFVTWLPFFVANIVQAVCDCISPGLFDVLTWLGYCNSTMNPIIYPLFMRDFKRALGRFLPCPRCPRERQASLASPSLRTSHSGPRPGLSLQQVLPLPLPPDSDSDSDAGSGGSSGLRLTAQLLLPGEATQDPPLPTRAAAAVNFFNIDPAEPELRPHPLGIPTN
assay-text: Serotonin 5-HT6 radioligand binding ([3H]LSD)
experimental-parameters: compound at 1 μM; read-out: Inhibition of ligand binding, Serotonin 5-HT6 (percent inhibition of specific binding)
Heads up, the class ranges for inhibition at 1 µM are category 1 (below 50%), category 2 (50% to below 70%), category 3 (70% or more)

Solved entries (count: 5):
>>> assigned_category("CN1CCc2c(c3cc(Cl)ccc3n2C#Cc2ccc(Cl)cc2)C1")
"category 2"
>>> assigned_category("C=C(Cn1c2c(c3cc(Cl)ccc31)CN(C)CC2)c1ccc(C)nc1")
"category 3"
>>> assigned_category("COC(=O)c1ccc2c(c1)c1c(n2C#Cc2ccc(F)cc2)CCN(C)C1")
"category 3"
>>> assigned_category("CCN1CCc2c(c3ccccc3n2CC(O)c2ccc(C)cc2)C1 (racemic)")
"category 1"
>>> assigned_category("CN1CCc2c(c3cc(C(=O)O)ccc3n2C#Cc2ccc(F)cc2)C1")
"category 1"

Input line: Could you place Cc1ccc2c(c1)c1c(n2CC(O)c2ccc(C)nc2)CCN(C)C1 (stereo not drawn) in its proper category? Many thanks.
Output line: category 2

Input line: Please indicate the class for COc1ccc(C(C)(O)Cn2c3c(c4cc(Cl)ccc42)CN(C)CC3)cc1F (stereo not drawn) based on its inhibition at 1 µM.
Output line: category 2

Input line: State the class of the molecule shown: CN1CCc2c(c3cc(Cl)ccc3n2CC(O)(c2ccc(F)cc2)C2CCC2)C1 (stereo not drawn)
Output line: category 3

Input line: Band for CN1CCc2c(c3cccc(Cl)c3n2CC(C)(O)c2ccncc2)C1 (stereo not drawn) ?
Output line: category 1
